Assay remarks: Measurement of the dissolution rate (USP Wood Apparatus, rotary disk method)
Assay type: physicochemical
Assay conditions: phosphate buffer of pH 6.8, 37° C., rotary disk
Measured property: Dissolution rate constants at pH 6.8 (mg/cm^2/min)

Examples from the recorded data:
| Compound | Obs value |
| --- | --- |
| CN(C)CC(c1ccc(O)cc1)C1(O)CCCCC1 (centres unmarked) [Base, Desvenlafaxine] | 0.2 |
| CN(C)CC(c1ccc(O)cc1)C1(O)CCCCC1 (centres unmarked) [Hemioxalate, anhydrous, Anhydrous Desvenlafaxine Hemioxalate] | 5.9 |

P = CN(C)CC(c1ccc(O)cc1)C1(O)CCCCC1.O=C(O)/C=C/C(=O)O (centres unmarked) [Hydrogen fumarate hydrate, Desvenlafaxine hydrogen fumarate]
Q = CN(C)CC(c1ccc(O)cc1)C1(O)CCCCC1.O=C(O)C(=O)O (centres unmarked) [Hydrogen oxalate hydrate, Desvenlafaxine Hydrogen Oxalate Hydrate]
R = CN(C)CC(c1ccc(O)cc1)C1(O)CCCCC1.O=C(O)CCC(=O)O (centres unmarked) [Hydrogen succinate hydrate, Desvenlafaxine hydrogen succinate]
Ascending sort, Dissolution rate constants at pH 6.8. List the labels according to the requested ordering.
P, R, Q

These data points were gathered from patent US8779005B2.
